Provide the reported pKd of each item.
# Target Or System: T1, MBP-tagged RocCOR LRRK2 (wild type)
# T1 chain: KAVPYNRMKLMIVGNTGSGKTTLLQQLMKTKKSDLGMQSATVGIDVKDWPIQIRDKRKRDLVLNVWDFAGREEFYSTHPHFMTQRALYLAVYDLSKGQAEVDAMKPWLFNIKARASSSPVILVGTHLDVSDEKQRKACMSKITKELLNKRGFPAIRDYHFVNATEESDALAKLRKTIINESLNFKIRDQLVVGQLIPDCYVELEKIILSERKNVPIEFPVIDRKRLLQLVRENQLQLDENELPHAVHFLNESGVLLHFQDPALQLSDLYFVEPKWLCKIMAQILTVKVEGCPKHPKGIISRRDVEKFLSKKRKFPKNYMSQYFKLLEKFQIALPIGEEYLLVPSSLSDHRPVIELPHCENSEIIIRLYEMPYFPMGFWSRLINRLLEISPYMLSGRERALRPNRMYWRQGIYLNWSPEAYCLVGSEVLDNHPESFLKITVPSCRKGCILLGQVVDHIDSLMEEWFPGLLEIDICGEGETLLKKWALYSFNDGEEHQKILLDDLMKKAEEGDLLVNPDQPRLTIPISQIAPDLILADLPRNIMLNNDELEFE
# Procedure Summary: FP
Bridge positions count the residues as written; N and C are the ends. Square brackets hold non-standard residues; d marks the D form. Primed or numbered codes have the meaning given here. Ends that are not written are not given here. 5/6FAM = 5/6-carboxyfluorescein; S5 = C=CCCC[C@](C)(N)C(=O)O; PEG3′ = not defined here
# reply with the number alone; pKd is -log10 of concentration in mol/L

For {5/6FAM-PEG3′}-KGEGE[S5]LLK[S5]WGLYSFNDGEKH[S5]KKL[S5]KL (staple 6-10, 23-27) [FAM ECOR A12G (doubly stapled Elongated COR peptide with A12G)] the binder record lists pKd as 7.24

For {FAM-PEG3′}-KGEGE[S5]LLK[S5]WALYSFNDGEKH[S5]KKL[S5]KL (staple 6-10, 23-27) [FAM ECOR (doubly stapled Elongated COR peptide)] the binder record lists pKd as 7.35

Origin of values: paper PMC10251477
